Target Entity: T1, human BCMA expressed on cell surface (H929, OPM-2, CHOK1-hBCMA cells) (human, UniProt Q02223 1-184)
T1 construct: also called cell-surface BCMA; BCMA on cell surface
T1 sequence: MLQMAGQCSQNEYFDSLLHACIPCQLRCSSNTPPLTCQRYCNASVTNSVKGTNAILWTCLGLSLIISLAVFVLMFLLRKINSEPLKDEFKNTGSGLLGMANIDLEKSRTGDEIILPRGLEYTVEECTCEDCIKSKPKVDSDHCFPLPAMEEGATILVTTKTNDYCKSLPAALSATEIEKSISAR
Experimental Protocol: FACS on H929 cells, 10 µg/ml antibody, anti-human Fc-FITC; open histogram shifted right of the filled control
Assay Endpoint: MFI

Some solved cases for reference:
{"columns": ["Binder", "Recorded Value"],
 "data": [
  ["anti-BCMA IgG antibody 5B5 (antibody, V domains shown, also called 5B5 antibody) VH: EVQLLESGGGLVQPGGSLRLSCAASGFTFSGHYWSWVRQAPGKGLEWVSTVSGSGGDTFYADSVKGRFTISRDNSKNTLYLQMNSLRAEDTAVYYCARGHSVMDVWGQGTLVTVSS VL: EIVLTQSPGTLSLSPGERATLSCRASQGIDSYVAWYQQKPGQAPRLLIYDASLRATGIPDRFSGSGSGTDFTLTISRLEPEDFAVYYCQQYNSWPITFGQGTKLEIKR", 37.4],
  ["anti-BCMA IgG antibody B58 (antibody, V domains shown, also called B58 antibody) VH: EVQLLESGGGLVQPGGSLRLSCAASGFTFSNYDMSWVRQAPGKGLEWVSWIYPSDSSIYYADSVKGRFTISRDNSKNTLYLQMNSLRAEDTAVYYCARGPFANKYRQFDYWGQGTLVTVSS VL: QSVLTQPPSASGTPGQRVTISCSGSSSNIGSNSVSWYQQLPGTAPKLLIYADSKRPSGVPDRFSGSKSGTSASLAISGLRSEDEADYYCGSWDYSLSGYVFGGGTKLTVL", 80.7],
  ["anti-BCMA IgG antibody 5D5 (antibody, V domains shown, also called 5D5 WT; 5D5 antibody) VH: EVQLLESGGGLVQPGGSLRLSCAASGFTFSDYGLSWVRQAPGKGLEWVSLIDSSGSSTFYADSVKGRFTISRDNSKNTLYLQMNSLRAEDTAVYYCAKEHGLFDSWGQGTLVTVSS VL: EIVLTQSPGTLSLSPGERATLSCKASQDIDDDINWYQQKPGQAPRLLIYDASLRATGIPDRFSGSGSGTDFTLTISRLEPEDFAVYYCQQSLRTPITFGQGTKLEIKR", 29.9]
]}

input: State its MFI: anti-BCMA IgG antibody 5A6 (antibody, V domains shown, also called 5A6 WT; 5A6 antibody) VH: EVQLLESGGGLVQPGGSLRLSCAASGFTFSNYGVHWVRQAPGKGLEWVSYISYSGGTYYNPSLKSRFTISRDNSKNTLYLQMNSLRAEDTAVYYCARDSDDFGFDYWGQGTLVTVSS VL: QSVLTQPPSASGTPGQRVTISCQGDSLRSYYVNWYQQLPGTAPKLLIYDHSKRPTGVPDRFSGSKSGTSASLAISGLRSEDEADYYCQSYDSSTVVFGGGTKLTVLG
output: 100
